system: Zymoseptoria tritici; assay: Leaf blotch of wheat (SEPTTR) disease control on wheat seedlings; format: in vivo; settings: HV application at 100 ppm; 3 Day Curative; wheat leaf blotch
measurement.label: SEPTTR 3DC disease control rating, HV activity

{"molecule": "CCCOC(CC)C(Oc1ccccc1)C(C)OC(=O)C(C)NC(=O)c1nccc(OC)c1OC(C)=O (stereo not shown)", "data.value": "A (> 80)"}
{"molecule": "CCC(CCC(C)C)C(OCC1CC1)C(C)OC(=O)C(C)NC(=O)c1nccc(OC)c1O (stereo not shown)", "data.value": "B (≤ 80)"}
{"molecule": "COc1ccnc(C(=O)NC(C(=O)OC(C)C(Oc2ccc3ccccc3c2)C(C)C)C(C)C)c1O (stereo not shown)", "data.value": "B (≤ 80)"}
{"molecule": "CCCC(Oc1ccccc1)C(C)OC(=O)C(C)NC(=O)c1nccc(OC)c1O (stereo not shown)", "data.value": "A (> 80)"}

###

System: Zymoseptoria tritici
Assay: Leaf blotch of wheat (SEPTTR) disease control on wheat seedlings
Format: in vivo
Conditions: HV application at 100 ppm; 3 Day Curative; wheat leaf blotch
Procedure: All fungicides were evaluated using the aforementioned method for their activity vs. all target diseases, unless stated otherwise. Wheat leaf blotch and brown rust activity were also evaluated using track spray applications, in which case the fungicides were formulated as EC formulations, containing 0.1% Trycol 5941 in the spray solutions. […] Percent disease control was calculated using the ratio of disease severity on treated plants relative to untreated plants.
measurement.label: SEPTTR 3DC disease control rating, HV activity

{"molecule": "CCCOC(CC)C(Oc1ccccc1)C(C)OC(=O)C(NC(=O)c1nccc(OC)c1O)C(C)C (stereo not shown) [Cmpd 290]", "data.value": "B (≤ 80)"}
{"molecule": "COc1ccnc(C(=O)N[C@@H](C)C(=O)O[C@H](C)[C@@H](Oc2ccccc2)C(C)C)c1O [Cmpd 349]", "data.value": "B (≤ 80)"}
{"molecule": "CCC(C)C(NC(=O)c1nccc(OC)c1O)C(=O)OC(C)C(Oc1cc(F)ccc1F)C(C)C (stereo not shown) [Cmpd 395]", "data.value": "B (≤ 80)"}

###

tested on: Puccinia triticina; assay: Wheat brown rust (PUCCRT) disease control on wheat seedlings; format: in vivo; details: low volume application, 125.1 g/H, 1 Day Protectant
measurement.label: PUCCRT 1DP, LV activity at 125.1 g/H (% Control rating)

{"molecule": "CCC(CC)[C@@H](Oc1cccc(F)c1)[C@H](C)OC(=O)[C@@H](NC(=O)c1nccc(OC)c1OCOC(C)=O)C(C)C", "data.value": "A (> 80)"}
{"molecule": "CCC(CC)[C@@H](Oc1ccc(F)cc1)[C@H](C)OC(=O)[C@@H](NC(=O)c1nccc(OC)c1OC(C)=O)C(C)C", "data.value": "A (> 80)"}
{"molecule": "COc1ccnc(C(=O)NC(C)C(=O)OC(C)COCC2CC2)c1OC(C)=O (stereo not shown)", "data.value": "D"}
{"molecule": "COc1ccnc(C(=O)N[C@H](C)C(=O)O[C@H](C)[C@@H](Oc2ccccc2)c2ccccc2)c1OCOC(C)=O", "data.value": "D"}
{"molecule": "COc1ccnc(C(=O)NC(C)C(=O)OC(C)COc2ccccc2)c1OC(C)=O (stereo not shown)", "data.value": "D"}

Ask: GET /values?readout=PUCCRT 1DP, LV activity at 125.1 g/H (% Control rating)&item= COc1ccnc(C(=O)N[C@@H](C)C(=O)O[C@@H](C)[C@H](Oc2ccc(Cl)cc2)C(C)C)c1OCOC(=O)C(C)C
Result: A (> 80)

###

Test system: Puccinia triticina
Test: Wheat brown rust (PUCCRT) disease control on wheat seedlings
Type: in vivo
Conditions: Low volume application at 125.1 g/H; 3 Day Curative; wheat brown rust
Procedure: All fungicides were evaluated using the aforementioned method for their activity vs. all target diseases, unless stated otherwise. Wheat leaf blotch and brown rust activity were also evaluated using track spray applications, in which case the fungicides were formulated as EC formulations, containing 0.1% Trycol 5941 in the spray solutions. […] Percent disease control was calculated using the ratio of disease severity on treated plants relative to untreated plants. […]
measurement.label: PUCCRT 3DC disease control rating, LV activity

Consider the following illustrative entries.
{"compound": "CCCOC(CC)C(Oc1ccccc1)C(C)OC(=O)C(C)NC(=O)c1nccc(OC)c1OC(C)=O (centres unmarked)", "data.value": "A (> 80)"}
{"compound": "C=CC(OCCC)C(Oc1ccccc1)C(C)OC(=O)C(C)NC(=O)c1nccc(OC)c1OCOC(C)=O (centres unmarked)", "data.value": "A (> 80)"}
{"compound": "CCCOC(CC)C(Oc1ccccc1)C(C)OC(=O)C(C)NC(=O)c1nccc(OC)c1OCOC(C)=O (centres unmarked)", "data.value": "A (> 80)"}
{"compound": "CC[C@H](OC)[C@@H](Oc1ccccc1)[C@H](C)OC(=O)[C@H](C)NC(=O)c1nccc(OC)c1O", "data.value": "A (> 80)"}

Okay, next one:
Ask: GET /values?readout=PUCCRT 3DC disease control rating, LV activity&item= C=CC(OCCC)C(Oc1ccccc1)C(C)OC(=O)C(C)NC(=O)c1nccc(OC)c1OC(C)=O (centres unmarked)
Result: A (> 80)

###

system: Puccinia triticina; test: Wheat brown rust (PUCCRT) disease control on wheat seedlings; format: in vivo; settings: low volume application, 125.1 g/H, 1 Day Protectant
measurement.label: PUCCRT 1DP, LV activity at 125.1 g/H (% Control rating)

Consider the following illustrative entries.
{"compound": "CCC(CC)[C@@H](Oc1cccc(Cl)c1)[C@H](C)OC(=O)[C@@H](NC(=O)c1nccc(OC)c1OCOC(C)=O)C(C)C [Cmpd 647]", "assayed.system": "Puccinia triticina", "data.value": "A (> 80)"}
{"compound": "CCC(CC)[C@@H](Oc1ccc(Cl)cc1)[C@H](C)OC(=O)[C@H](C)NC(=O)c1nccc(OC)c1OCOC(C)=O [Cmpd 589]", "assayed.system": "Puccinia triticina", "data.value": "A (> 80)"}
{"compound": "COc1ccnc(C(=O)N[C@@H](C)C(=O)O[C@@H](C)[C@H](Oc2ccccc2)C(C)C)c1OCOC(C)=O [Cmpd 475]", "assayed.system": "Puccinia triticina", "data.value": "A (> 80)"}
{"compound": "CCC(CC)[C@@H](Oc1cccc(-c2ccccc2)c1)[C@H](C)OC(=O)[C@@H](NC(=O)c1nccc(OC)c1OCOC(C)=O)C(C)C [Cmpd 654]", "assayed.system": "Puccinia triticina", "data.value": "A (> 80)"}
{"compound": "CCCOCC(C)OC(=O)C(C)NC(=O)c1nccc(OC)c1OCOC(C)=O (centres unmarked) [Cmpd 522]", "assayed.system": "Puccinia triticina", "data.value": "D"}

Ask: GET /values?readout=PUCCRT 1DP, LV activity at 125.1 g/H (% Control rating)&item= COc1ccnc(C(=O)N[C@@H](C)C(=O)O[C@@H](C)[C@H](Oc2ccc(F)cc2)C(C)C)c1OCOC(C)=O [Cmpd 615]
Result: A (> 80)

Ask: Thanks! And COc1ccnc(C(=O)NC(C)C(=O)OC(C)COc2ccccc2)c1OC(=O)C1CC1 (centres unmarked) [Cmpd 541] ?
Result: D

Ask: Thanks! And CCC(CC)[C@@H](Oc1cccc(-c2ccccc2)c1)[C@H](C)OC(=O)[C@H](C)NC(=O)c1nccc(OC)c1OC(C)=O [Cmpd 606] ?
Result: A (> 80)

Ask: Thanks! And COc1ccnc(C(=O)N[C@@H](C)C(=O)O[C@@H](C)[C@H](Oc2ccc(Cl)cc2Cl)C2CCCC2)c1OCOC(C)=O [Cmpd 551] ?
Result: A (> 80)

Ask: Thanks! And CCC(CC)[C@@H](Oc1ccc(Cl)cc1)[C@H](C)OC(=O)[C@H](C)NC(=O)c1nccc(OC)c1OC(C)=O [Cmpd 600] ?
Result: A (> 80)

Ask: Thanks! And COc1ccnc(C(=O)N[C@H](C(=O)O[C@@H](C)[C@H](Oc2cccc3ccccc23)C(C)C)C(C)C)c1OCOC(C)=O [Cmpd 624] ?
Result: A (> 80)

Ask: Thanks! And COc1ccnc(C(=O)N[C@@H](C)C(=O)O[C@@H](C)[C@H](Oc2ccc(Cl)cc2Cl)c2ccccc2)c1OC(C)=O [Cmpd 635] ?
Result: A (> 80)

Ask: Thanks! And CCCOCC(C)OC(=O)C(C)NC(=O)c1nccc(OC)c1OCOC(=O)C(C)C (centres unmarked) [Cmpd 523] ?
Result: D

###

tested on: Puccinia triticina; assay: Wheat brown rust (PUCCRT) disease control on wheat seedlings; format: in vivo; settings: low volume application, 125.1 g/H, 3 Day Curative, wheat brown rust
measurement.label: LV activity at 125.1 g/H PUCCRT 3DC (disease control rating)

{"compound": "CCOc1ccnc(C(=O)NC(C)C(=O)OC(C)C(CC(C)C)Oc2ccc(C)cc2Cl)c1OC(C)=O (stereo not shown)", "data.value": "B (≤ 80)"}
{"compound": "COc1ccnc(C(=O)N[C@@H](C)C(=O)O[C@@H](C)[C@@H](CC(C)C)Oc2ccccc2)c1OCOC(=O)C(C)C", "data.value": "A (> 80)"}
{"compound": "COc1ccnc(C(=O)N[C@@H](C)C(=O)O[C@@H](C)[C@H](Oc2cccc(Cl)c2)C2CC2)c1OC(C)=O", "data.value": "A (> 80)"}
{"compound": "COc1ccnc(C(=O)NC(C)C(=O)OC(C(C)C)C(Oc2ccccc2)C(C)C)c1OCOC(C)=O (stereo not shown) [Cmpd 1088]", "data.value": "D"}
{"compound": "COc1ccnc(C(=O)NC(C)C(=O)OC(C(C)C)C(Oc2ccccc2)C(C)C)c1OCOC(C)=O (stereo not shown) [Cmpd 1094]", "data.value": "D"}
{"compound": "COCC(OC(=O)C(C)NC(=O)c1nccc(OC)c1OCOC(C)=O)C(Oc1ccccc1)C(C)C (stereo not shown) [Cmpd 1090]", "data.value": "B (≤ 80)"}
{"compound": "COc1cccc(O[C@@H]([C@H](C)OC(=O)[C@H](C)NC(=O)c2nccc(OC)c2OC(C)=O)C(C)(C)C)c1", "data.value": "A (> 80)"}
{"compound": "COc1cccc(O[C@H](C2CC2)[C@H](C)OC(=O)[C@H](C)NC(=O)c2nccc(OC)c2OC(C)=O)c1", "data.value": "A (> 80)"}
{"compound": "COc1ccnc(C(=O)N[C@@H](C)C(=O)O[C@@H](C)[C@@H](CC(C)C)Oc2cccc(F)c2)c1OC(C)=O", "data.value": "A (> 80)"}
{"compound": "COc1cc(O[C@H](CC(C)C)[C@H](C)OC(=O)[C@H](C)NC(=O)c2nccc(OC)c2OC(C)=O)ccc1Cl", "data.value": "A (> 80)"}

Ask: GET /values?readout=LV activity at 125.1 g/H PUCCRT 3DC (disease control rating)&item= COc1ccnc(C(=O)N[C@@H](C)C(=O)O[C@@H](C)[C@H](Oc2ccccc2)C(C)(C)C)c1OC(C)=O
Result: A (> 80)

Ask: Thanks! And C=CC[C@@H](Oc1cccc(Cl)c1)[C@H](C)OC(=O)[C@H](C)NC(=O)c1nccc(OC)c1OC(C)=O ?
Result: A (> 80)

Ask: Thanks! And C=CC[C@@H](OCC1CC1)[C@H](C)OC(=O)[C@H](C)NC(=O)c1nccc(OC)c1OC(C)=O ?
Result: B (≤ 80)

Ask: Thanks! And COc1ccnc(C(=O)N[C@@H](C)C(=O)O[C@@H](C)[C@H](Oc2ccc(C)cc2)C2CC2)c1OC(C)=O ?
Result: A (> 80)

Ask: Thanks! And C=CC[C@@H](OCC1CC1)[C@H](C)OC(=O)[C@H](C)NC(=O)c1nccc(OC)c1OCOC(C)=O ?
Result: B (≤ 80)

Ask: Thanks! And CCOc1ccnc(C(=O)N[C@@H](C)C(=O)O[C@@H](C)[C@@H](CC(C)C)Oc2ccc(Cl)c(OC)c2)c1OC(C)=O ?
Result: D

Ask: Thanks! And C=CC(OC(=O)C(C)NC(=O)c1nccc(OC)c1OCOC(C)=O)C(Oc1ccccc1)C(C)C (stereo not shown) ?
Result: B (≤ 80)
